// IC50 lookup, one value per entry
target: PI 3-kinase gamma (Homo sapiens)
Sequence (P48736 whole entry): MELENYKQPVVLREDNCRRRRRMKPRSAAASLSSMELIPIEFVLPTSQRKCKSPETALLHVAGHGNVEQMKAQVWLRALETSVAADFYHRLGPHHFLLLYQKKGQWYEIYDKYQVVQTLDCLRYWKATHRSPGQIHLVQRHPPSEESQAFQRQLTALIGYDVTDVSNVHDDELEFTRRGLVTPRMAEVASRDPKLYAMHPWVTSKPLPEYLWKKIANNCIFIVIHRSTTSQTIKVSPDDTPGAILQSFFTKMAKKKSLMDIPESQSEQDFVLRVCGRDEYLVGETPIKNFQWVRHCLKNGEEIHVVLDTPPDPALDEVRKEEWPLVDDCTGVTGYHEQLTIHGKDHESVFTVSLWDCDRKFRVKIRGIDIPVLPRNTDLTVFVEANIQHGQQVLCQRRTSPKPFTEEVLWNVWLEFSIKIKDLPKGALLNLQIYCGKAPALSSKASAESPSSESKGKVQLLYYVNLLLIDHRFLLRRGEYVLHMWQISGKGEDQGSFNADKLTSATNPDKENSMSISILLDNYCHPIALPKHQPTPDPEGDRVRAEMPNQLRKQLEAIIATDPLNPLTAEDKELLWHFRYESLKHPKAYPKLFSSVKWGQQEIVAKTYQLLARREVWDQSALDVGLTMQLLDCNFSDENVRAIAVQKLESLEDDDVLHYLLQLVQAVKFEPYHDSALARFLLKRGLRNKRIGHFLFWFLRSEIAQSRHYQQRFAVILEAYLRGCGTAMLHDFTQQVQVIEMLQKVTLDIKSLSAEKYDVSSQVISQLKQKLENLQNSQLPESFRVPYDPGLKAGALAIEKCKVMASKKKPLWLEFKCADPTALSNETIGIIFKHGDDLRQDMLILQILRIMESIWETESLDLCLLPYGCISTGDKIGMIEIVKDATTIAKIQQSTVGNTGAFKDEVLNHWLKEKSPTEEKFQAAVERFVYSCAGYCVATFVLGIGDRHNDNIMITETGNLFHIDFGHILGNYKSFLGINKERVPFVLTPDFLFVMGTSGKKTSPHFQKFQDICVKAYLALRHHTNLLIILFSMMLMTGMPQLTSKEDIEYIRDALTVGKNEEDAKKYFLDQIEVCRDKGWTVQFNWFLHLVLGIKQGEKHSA
assay_protocol: TR-FRET Adapta assay, assay E
Type: biochemical
measurement_context: read-out: Assay E PI3Kγ IC50
Record the value in nM, omitting the unit from your answer.

Some compounds with known IC50 results, for comparison:
// query Entry under review: Cc1nc(C)n(-c2nc(-c3cc(S(=O)(=O)NCC(C)(C)O)ccc3C)cnc2N)n1 [Example 49] . Reported IC50?
// result 49

// query Value lookup for IC50; key = Cc1ccc(S(=O)(=O)N2CCC(F)C2)cc1-c1cnc(N)c(-n2cncn2)n1 (centres unmarked) [Example 127.2]
// result 73

// query What IC50 value was documented for this compound, Cc1cc(-c2nc(-c3cc(S(=O)(=O)NC4CCOCC4)ccc3C)cnc2N)ccn1 [Example 129.10] ?
// result 27

***
// query Return reported IC50; argument: Cc1noc(-c2nc(-c3cc(S(=O)(=O)NCCC(C)(C)O)ccc3C)cnc2N)n1 [Example 3]
// result 46

// query # input compound: Cc1ccc(S(=O)(=O)NCC(C)(C)O)cc1-c1cnc(N)c(-n2cc(C)c(C)n2)n1 [Example 47] ; wanted: its IC50
// result 49

// query IC50 lookup needed for Cc1ccc(S(=O)(=O)NC2CCSC2=O)cc1-c1cnc(N)c(-n2cncn2)n1 (centres unmarked) [Example 127.51] , thanks.
// result 65

// query Which measured IC50 value corresponds to Cc1ccc(S(=O)(=O)NCCC(C)(C)O)cc1-c1cnc(N)c(-n2cncn2)n1 [Example 64] ?
// result 46

// query Quick check: IC50 of Cc1ccc(S(=O)(=O)N[C@H](C#N)CO)cc1-c1cnc(N)c(-n2cncn2)n1 [Example 127.48] ?
// result 60

====

target: PI 3-kinase beta (Homo sapiens, UniProt P42338)
Sequence (P42338 whole entry): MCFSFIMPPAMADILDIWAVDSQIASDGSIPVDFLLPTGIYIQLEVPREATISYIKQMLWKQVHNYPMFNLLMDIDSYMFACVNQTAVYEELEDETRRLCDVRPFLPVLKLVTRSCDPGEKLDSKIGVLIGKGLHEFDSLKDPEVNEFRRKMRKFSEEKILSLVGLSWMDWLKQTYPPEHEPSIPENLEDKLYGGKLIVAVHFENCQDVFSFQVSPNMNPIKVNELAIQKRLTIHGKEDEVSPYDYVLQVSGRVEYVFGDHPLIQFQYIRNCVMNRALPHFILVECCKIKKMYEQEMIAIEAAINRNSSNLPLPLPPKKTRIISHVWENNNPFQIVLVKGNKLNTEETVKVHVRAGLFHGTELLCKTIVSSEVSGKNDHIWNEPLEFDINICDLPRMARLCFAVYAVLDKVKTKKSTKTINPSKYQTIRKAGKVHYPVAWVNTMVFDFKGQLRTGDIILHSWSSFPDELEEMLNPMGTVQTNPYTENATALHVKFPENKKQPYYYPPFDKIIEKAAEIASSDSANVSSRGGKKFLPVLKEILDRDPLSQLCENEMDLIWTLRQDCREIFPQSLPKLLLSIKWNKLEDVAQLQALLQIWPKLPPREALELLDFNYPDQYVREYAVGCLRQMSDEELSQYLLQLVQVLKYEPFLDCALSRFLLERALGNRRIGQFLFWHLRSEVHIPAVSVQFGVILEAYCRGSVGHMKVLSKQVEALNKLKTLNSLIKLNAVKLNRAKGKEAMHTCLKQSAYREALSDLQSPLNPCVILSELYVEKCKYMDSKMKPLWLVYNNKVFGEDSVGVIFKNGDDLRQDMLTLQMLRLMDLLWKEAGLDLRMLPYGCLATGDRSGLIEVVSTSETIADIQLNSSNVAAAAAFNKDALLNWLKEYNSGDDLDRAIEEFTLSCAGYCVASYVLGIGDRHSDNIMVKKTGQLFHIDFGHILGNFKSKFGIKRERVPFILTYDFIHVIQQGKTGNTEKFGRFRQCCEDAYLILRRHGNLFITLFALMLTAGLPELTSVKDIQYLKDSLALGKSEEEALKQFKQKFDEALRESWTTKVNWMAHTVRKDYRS
Sequence (Q63787 whole entry partner): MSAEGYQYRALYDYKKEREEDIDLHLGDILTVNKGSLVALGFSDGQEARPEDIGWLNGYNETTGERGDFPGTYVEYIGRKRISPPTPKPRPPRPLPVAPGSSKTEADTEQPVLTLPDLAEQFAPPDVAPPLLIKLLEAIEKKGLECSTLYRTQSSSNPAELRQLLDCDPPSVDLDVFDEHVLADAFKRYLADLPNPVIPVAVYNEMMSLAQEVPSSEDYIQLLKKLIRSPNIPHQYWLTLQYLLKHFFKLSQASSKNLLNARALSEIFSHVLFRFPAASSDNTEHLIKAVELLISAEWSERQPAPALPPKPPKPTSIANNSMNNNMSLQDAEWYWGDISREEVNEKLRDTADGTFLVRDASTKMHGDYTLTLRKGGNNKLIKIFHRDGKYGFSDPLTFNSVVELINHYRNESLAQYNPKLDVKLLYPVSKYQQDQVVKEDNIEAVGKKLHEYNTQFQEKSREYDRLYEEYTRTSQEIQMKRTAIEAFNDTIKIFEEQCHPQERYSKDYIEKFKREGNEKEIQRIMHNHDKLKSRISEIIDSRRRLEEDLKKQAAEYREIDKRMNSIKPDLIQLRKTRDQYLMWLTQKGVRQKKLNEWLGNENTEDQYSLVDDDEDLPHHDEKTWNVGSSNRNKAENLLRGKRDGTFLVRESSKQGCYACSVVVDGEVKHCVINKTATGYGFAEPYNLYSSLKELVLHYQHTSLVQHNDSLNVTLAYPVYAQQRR
assay_protocol: Cellular assay I1, p-Akt (S473) in Rat-1 cells, Surefire format
Format: cell-based
measurement_context: non-asterisked data: version I1 (Surefire format), Rat-1 cells; read-out: Assay I PI3Kβ IC50
pIC50: −log10 of the molar value. Structures can show the parent of a compound that is named as a salt.
experimental_readout: pIC50

// query Entry Cc1ccc(S(=O)(=O)NC[C@@H]2CCNC2)cc1-c1cnc(N)c(-n2cncn2)n1 [Example 127.57, trifluoroacetic acid salt] has what pIC50?
// result < 5.00

// query Using the record for Cc1cc(-c2nc(-c3cc(S(=O)(=O)NC[C@H]4CCNC4)ccc3C)cnc2N)ccn1 , report its pIC50.
// result < 5.52

// query Using the record for Cc1ncc(-c2nc(-c3cc(S(=O)(=O)NC4CC(O)C4)ccc3C)cnc2N)s1 (mixture of isomers) , report its pIC50.
// result < 5.00

# input for lookup
// query What value of pIC50 has been reported for the following compound? Cc1ccc(S(=O)(=O)NCCC(C)(C)O)cc1-c1cnc(N)c(-c2ccc(N3CCOCC3)nc2)n1
// result < 5.00

====

pIC50 values for the molecules below.
target: Vps34 (Homo sapiens, UniProt Q8NEB9)
assay_protocol: Kinase Glo Luminescent Kinase Assay (Kglo), assay C
Type: biochemical
measurement_context: read-out: Assay C VPS34 IC50
pIC50: −log10 of the molar value. Where a name gives a salt, the structure may show the parent alone.

// query Consider the molecule Cc1ccc(S(=O)(=O)NCCC(C)(C)O)cc1-c1cnc(N)c(-c2cnn(CCN3CCOCC3)c2)n1 and give its measured pIC50.
// result < 5.00

// query Given the entry Cc1ccc(S(=O)(=O)NCC2CCCCO2)cc1-c1cnc(N)c(-n2cncn2)n1 (stereo not drawn) , report its measured pIC50.
// result < 5.00

***
// query Need pIC50, item Cc1ccc(S(=O)(=O)NC[C@H]2CCCN2)cc1-c1cnc(N)c(-c2cn(C)nc2C)n1 [Example 106, hydrochloride]
// result < 5.00

// query Any idea what pIC50 was measured for Cc1ccc(S(=O)(=O)N2CCC(F)C2)cc1-c1cnc(N)c(-n2cncn2)n1 (stereo not drawn) ?
// result < 5.00

====

Recorded pIC50 for the following compounds
target: Vps34 (Homo sapiens, UniProt Q8NEB9)
assay_protocol: Kinase Glo Luminescent Kinase Assay (Kglo), assay C
Type: biochemical
measurement_context: read-out: Assay C VPS34 IC50
pIC50: −log10 of the molar value.

Examples with answers:
// query // map Cc1cc(-c2nc(-c3cc(S(=O)(=O)NC4CCC(CO)CC4)ccc3C)cnc2N)ccn1 (centres unmarked) [Example 129.1] to recorded pIC50 (system: Vps34 (Homo sapiens, UniProt Q8NEB9))
// result < 5.04

// query Give pIC50 (Vps34 (Homo sapiens, UniProt Q8NEB9)) of the following compound: Cc1ccc(S(=O)(=O)NCCC(C)(C)O)cc1-c1cnc(N)c(-c2cnc(C3CC3)s2)n1 [Example 107]
// result 5.51

Next:
// query Any idea what pIC50 came out for Cc1ccc(S(=O)(=O)NCCC(C)(C)O)cc1-c1cnc(N)c(-c2cccnc2F)n1 [Example 119.1] on Vps34 (Homo sapiens, UniProt Q8NEB9)?
// result < 5.04

// query // map Cc1ccc(S(=O)(=O)NCCCF)cc1-c1cnc(N)c(-n2cncn2)n1 [Example 127.29] to recorded pIC50 (system: Vps34 (Homo sapiens, UniProt Q8NEB9))
// result < 5.00

// query What measured pIC50 is associated with Cc1ccc(S(=O)(=O)NC[C@H]2COCCN2)cc1-c1cnc(N)c(-c2cn(C)nc2C)n1 [Example 128.7] on Vps34 (Homo sapiens, UniProt Q8NEB9)?
// result < 5.00

====

target: PI 3-kinase alpha (Homo sapiens, UniProt P42336)
Sequence (P42336 whole entry): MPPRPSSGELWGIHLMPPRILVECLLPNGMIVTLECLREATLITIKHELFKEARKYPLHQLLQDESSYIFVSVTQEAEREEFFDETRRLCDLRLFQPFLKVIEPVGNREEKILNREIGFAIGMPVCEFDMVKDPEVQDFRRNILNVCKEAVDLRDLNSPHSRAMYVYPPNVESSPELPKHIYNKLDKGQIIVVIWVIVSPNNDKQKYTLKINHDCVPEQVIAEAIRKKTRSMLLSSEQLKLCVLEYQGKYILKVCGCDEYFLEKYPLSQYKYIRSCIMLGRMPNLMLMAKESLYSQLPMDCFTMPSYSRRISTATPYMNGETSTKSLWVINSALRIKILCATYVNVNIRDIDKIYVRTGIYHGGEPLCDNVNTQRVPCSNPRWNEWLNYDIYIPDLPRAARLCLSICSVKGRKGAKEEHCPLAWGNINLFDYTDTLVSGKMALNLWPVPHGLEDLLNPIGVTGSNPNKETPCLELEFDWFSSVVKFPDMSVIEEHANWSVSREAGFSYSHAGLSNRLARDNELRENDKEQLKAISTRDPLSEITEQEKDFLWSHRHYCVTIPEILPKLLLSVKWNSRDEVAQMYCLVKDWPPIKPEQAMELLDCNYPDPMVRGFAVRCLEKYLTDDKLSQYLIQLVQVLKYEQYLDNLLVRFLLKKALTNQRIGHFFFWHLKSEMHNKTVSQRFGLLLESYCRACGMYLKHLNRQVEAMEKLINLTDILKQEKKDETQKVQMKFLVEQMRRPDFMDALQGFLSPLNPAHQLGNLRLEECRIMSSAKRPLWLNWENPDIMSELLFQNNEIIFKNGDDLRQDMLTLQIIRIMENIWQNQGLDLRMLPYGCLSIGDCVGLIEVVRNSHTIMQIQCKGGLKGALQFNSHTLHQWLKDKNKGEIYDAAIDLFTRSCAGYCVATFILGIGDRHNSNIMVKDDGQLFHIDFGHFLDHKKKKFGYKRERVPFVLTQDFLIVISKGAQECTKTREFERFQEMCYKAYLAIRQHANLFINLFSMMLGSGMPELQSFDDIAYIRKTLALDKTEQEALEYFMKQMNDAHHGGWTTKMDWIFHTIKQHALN
assay_protocol: Kinase Glo Luminescent Kinase Assay (Kglo), assay A
Format: biochemical
measurement_context: read-out: Assay A PI3Kα IC50
Structures can show the parent of a compound that is named as a salt.
Could you please mark Criterion met for values of IC50 below 400 nM and Criterion not met for values at or above it?

These solved cases illustrate the format of a correct answer.
// query Consider the compound Cc1ccc(S(=O)(=O)NCC2(O)CCC2)cc1-c1cnc(N)c(-n2cncn2)n1 [Example 127.16] . Is its IC50 strictly less than 400 nM?
// result Criterion met

// query hey, is IC50 for Cc1nc(C)n(-c2nc(-c3cc(S(=O)(=O)NCC(C)(C)O)ccc3C)cnc2N)n1 [Example 49] lower than 400 nM or not?
// result Criterion not met

// query Is 400 nM strictly greater than the compound's reported IC50? compound: Cc1ccc(S(=O)(=O)NCC2(CO)CC2)cc1-c1cnc(N)c(-n2cncn2)n1 [Example 127.38]
// result Criterion not met

// query Problem: For the compound Cc1ccc(S(=O)(=O)NCCC(C)(C)O)cc1-c1cnc(N)c(-c2ccnn2C)n1 [Example 77] , is IC50 under 400 nM?
// result Criterion met

// query hey, is IC50 for Cc1ccc(S(=O)(=O)NC[C@H]2CCCN2)cc1-c1cnc(N)c(-c2cn(C)nc2C)n1 [Example 106, hydrochloride] lower than 400 nM or not?
// result Criterion met

// query Given the entry Cc1ccc(S(=O)(=O)NCCC(C)(C)O)cc1-c1cnc(N)c(-c2cnn(CC(C)C)c2)n1 [Example 119.32] , would its reported IC50 be below 400 nM?
// result Criterion met

// query Consider the compound Cc1cc(-c2nc(-c3cc(S(=O)(=O)NCCN4CCOCC4)ccc3C)cnc2N)ccn1 [Example 129.28] . Is its IC50 strictly less than 400 nM?
// result Criterion met

***
// query Decide: IC50 of Cc1ccc(S(=O)(=O)NCC(C)(C)O)cc1-c1cnc(N)c(-c2cnn(C)c2)n1 [Example 46.2] strictly below 400 nM?
// result Criterion not met

====

target: PI 4-kinase beta (Homo sapiens, UniProt Q9UBF8)
Sequence (Q9UBF8 whole entry): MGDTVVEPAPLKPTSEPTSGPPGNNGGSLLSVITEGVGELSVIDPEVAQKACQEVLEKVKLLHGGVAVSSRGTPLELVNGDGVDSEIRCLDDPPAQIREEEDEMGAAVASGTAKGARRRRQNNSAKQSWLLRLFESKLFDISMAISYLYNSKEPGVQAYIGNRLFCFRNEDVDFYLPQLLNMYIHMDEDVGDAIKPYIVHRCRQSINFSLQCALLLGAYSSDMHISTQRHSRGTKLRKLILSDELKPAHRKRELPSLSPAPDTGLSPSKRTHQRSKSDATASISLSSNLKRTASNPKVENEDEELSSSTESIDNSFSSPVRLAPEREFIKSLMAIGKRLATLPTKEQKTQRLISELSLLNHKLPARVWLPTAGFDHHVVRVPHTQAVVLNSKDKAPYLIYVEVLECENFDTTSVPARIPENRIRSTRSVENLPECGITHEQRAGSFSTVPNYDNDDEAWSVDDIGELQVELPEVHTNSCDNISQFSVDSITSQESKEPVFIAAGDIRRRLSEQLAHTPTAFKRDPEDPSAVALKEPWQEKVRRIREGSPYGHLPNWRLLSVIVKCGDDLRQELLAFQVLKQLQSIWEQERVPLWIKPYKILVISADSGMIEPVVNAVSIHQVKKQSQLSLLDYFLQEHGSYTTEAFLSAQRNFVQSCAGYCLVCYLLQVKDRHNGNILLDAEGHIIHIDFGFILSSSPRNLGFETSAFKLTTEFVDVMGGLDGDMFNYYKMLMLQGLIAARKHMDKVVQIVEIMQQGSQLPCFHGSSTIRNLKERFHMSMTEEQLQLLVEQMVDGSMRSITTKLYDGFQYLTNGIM
assay_protocol: Kinase Glo Luminescent Kinase Assay (Kglo), assay D
Format: biochemical
measurement_context: read-out: Assay D PI4Kβ IC50
experimental_readout: IC50

// query For the record Cc1nnc(-c2nc(-c3cc(S(=O)(=O)N[C@H]4CC[C@H](O)CC4)ccc3C)cnc2N)o1 , what value of IC50 is listed for PI 4-kinase beta (Homo sapiens, UniProt Q9UBF8)?
// result > 9.1 µM

// query Give PI 4-kinase beta (Homo sapiens, UniProt Q9UBF8) IC50 for Cc1cc(-c2nc(-c3cc(S(=O)(=O)N4CC[C@@H](N)C4)ccc3C)cnc2N)ccn1
// result > 9.1 µM

// query Form: Entry = Cc1ncn(-c2nc(-c3cc(S(=O)(=O)NCC(C)(C)O)ccc3C)cnc2N)n1 | System = PI 4-kinase beta (Homo sapiens, UniProt Q9UBF8) | IC50 = ____
// result > 10 µM

Okay, now this molecule:
// query Given the entry Cc1ccc(S(=O)(=O)N[C@H]2CC[C@H](O)CC2)cc1-c1cnc(N)c(-c2cncnc2)n1 , what IC50 was observed with PI 4-kinase beta (Homo sapiens, UniProt Q9UBF8)?
// result > 9.1 µM
